Attribution: patent US20120316071A1

tested-system: T1, rHuman EGF R/Fc Chimera, CF (R&D Systems Cat#344-ER) (human, UniProt P00533 25-645)
T1 construct: Bought recombinant protein; also called epidermal growth factor receptor
test-summary: ECL multispot (MSD) binding assay, antigen spotted on plate;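 note: purified Fab incubated 1 h at 20 °C on antigen spots, detected with TAG-labelled antibody, electrochemiluminescence compared with each well's blank, signal-to-blank ratio ≥4 counted as hit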
# maps each entry to its ECL signal
In your answer, state the number alone without any accompanying words.

Previously resolved entries follow.
- binder: "Fab VH1-46_IGHD6-6*01_IGHJ1*01 S102A/S103P/S104F/H111F (APFF) & L6_IGKJ1*01 S31H (Fab, V domains shown, Tested as Fab (CH1 with His6/Flag tags, kappa CL) made in E. coli; also called APFF / S31H) VH: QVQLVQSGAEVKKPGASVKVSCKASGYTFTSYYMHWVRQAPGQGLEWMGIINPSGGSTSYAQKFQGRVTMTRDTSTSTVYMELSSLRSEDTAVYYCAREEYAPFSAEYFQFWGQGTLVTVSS VL: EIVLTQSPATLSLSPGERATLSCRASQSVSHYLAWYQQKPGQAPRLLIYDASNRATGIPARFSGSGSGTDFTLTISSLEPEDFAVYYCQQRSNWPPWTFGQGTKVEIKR"
  result-number: 373
- binder: "Fab VH1-46_IGHD6-6*01_IGHJ1*01 S102A/S103P/S104F/H111F (APFF) & L6_IGKJ1*01 S31D (Fab, V domains shown, Tested as Fab (CH1 with His6/Flag tags, kappa CL) made in E. coli; also called APFF / S31D) VH: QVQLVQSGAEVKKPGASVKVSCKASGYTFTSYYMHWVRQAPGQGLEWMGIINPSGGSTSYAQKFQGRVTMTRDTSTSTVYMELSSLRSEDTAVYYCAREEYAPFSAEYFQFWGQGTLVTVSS VL: EIVLTQSPATLSLSPGERATLSCRASQSVSDYLAWYQQKPGQAPRLLIYDASNRATGIPARFSGSGSGTDFTLTISSLEPEDFAVYYCQQRSNWPPWTFGQGTKVEIKR"
  result-number: 438

--- query ---
// ECL signal lookup, key: Fab VH1-46_IGHD6-6*01_IGHJ1*01 S102A/S103P/S104F/H111F (APFF) & L6_IGKJ1*01 S31L (Fab, V domains shown, Tested as Fab (CH1 with His6/Flag tags, kappa CL) made in E. coli; also called APFF / S31L) VH: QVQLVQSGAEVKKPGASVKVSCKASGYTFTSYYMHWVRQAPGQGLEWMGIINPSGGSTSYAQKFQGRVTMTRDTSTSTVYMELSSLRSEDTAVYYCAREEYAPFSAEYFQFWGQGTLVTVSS VL: EIVLTQSPATLSLSPGERATLSCRASQSVSLYLAWYQQKPGQAPRLLIYDASNRATGIPARFSGSGSGTDFTLTISSLEPEDFAVYYCQQRSNWPPWTFGQGTKVEIKR
375
